system-name: T1, IL-18Rα-Fc (CD218a protein, Fc tag; ECD 19-329; ACROBiosystems, Inc, Cat. No. IL1-H5259) (UniProt Q13478 19-329)
T1 chain: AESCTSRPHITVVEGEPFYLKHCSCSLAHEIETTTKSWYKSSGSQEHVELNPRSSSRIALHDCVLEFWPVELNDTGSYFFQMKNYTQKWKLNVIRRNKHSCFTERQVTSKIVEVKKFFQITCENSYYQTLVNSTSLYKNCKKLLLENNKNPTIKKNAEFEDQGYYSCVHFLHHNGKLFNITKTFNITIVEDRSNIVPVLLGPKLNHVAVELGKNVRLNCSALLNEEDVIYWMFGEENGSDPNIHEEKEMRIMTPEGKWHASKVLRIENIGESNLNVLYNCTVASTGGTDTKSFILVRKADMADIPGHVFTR
test-method-notes: ELISA
Where no end group is shown, it is not given here.

{"binder": "GGELCWRPFSFVDCEEGG-biotin (cysteine pairing not given here) [biotinylated alpha synthetic F1a Consensus Construct]", "output-unit": "nM", "EC50": 0.11}
